Data origin: patent US20090075867A1

Tested on: PC-3, human prostate carcinoma cell
assay.method.text: In vitro cytotoxicity (MTT) on PC-3
Assay type: cell-based
settings: 24-hour cell culture
measured.parameter: pIC50
Kindly note that pIC50 refers to -log10 of the concentration in mol/L and answer with the value alone.

input.smiles: CN1CCN(c2nc(NCCc3ccc(Nc4nc(Nc5cccc(N)c5)nc(N5CCN(C)CC5)n4)cc3)nc(Nc3cccc(N)c3)n2)CC1
obs.value: 4.91
--
input.smiles: Nc1cccc(CCNc2nc(Nc3ccc(CCNc4nc(NCCO)nc(Nc5cccc(N)c5)n4)cc3)nc(Nc3cccc(N)c3)n2)c1
obs.value: 4.96

--- query ---
Dear colleague, I am looking for the recorded pIC50 of the following molecule: `Nc1ccc(CCNc2nc(Nc3ccc(CCNc4nc(NCCO)nc(Nc5cccc(N)c5)n4)cc3)nc(Nc3cccc(N)c3)n2)cc1`
5.64
